# subject-of-test: α5β1-fibronectin (Homo sapiens, UniProt P05556+P08648)
# Construct: host or cells: K562 wild type
# Sequence (P08648 42-894 limits assumed): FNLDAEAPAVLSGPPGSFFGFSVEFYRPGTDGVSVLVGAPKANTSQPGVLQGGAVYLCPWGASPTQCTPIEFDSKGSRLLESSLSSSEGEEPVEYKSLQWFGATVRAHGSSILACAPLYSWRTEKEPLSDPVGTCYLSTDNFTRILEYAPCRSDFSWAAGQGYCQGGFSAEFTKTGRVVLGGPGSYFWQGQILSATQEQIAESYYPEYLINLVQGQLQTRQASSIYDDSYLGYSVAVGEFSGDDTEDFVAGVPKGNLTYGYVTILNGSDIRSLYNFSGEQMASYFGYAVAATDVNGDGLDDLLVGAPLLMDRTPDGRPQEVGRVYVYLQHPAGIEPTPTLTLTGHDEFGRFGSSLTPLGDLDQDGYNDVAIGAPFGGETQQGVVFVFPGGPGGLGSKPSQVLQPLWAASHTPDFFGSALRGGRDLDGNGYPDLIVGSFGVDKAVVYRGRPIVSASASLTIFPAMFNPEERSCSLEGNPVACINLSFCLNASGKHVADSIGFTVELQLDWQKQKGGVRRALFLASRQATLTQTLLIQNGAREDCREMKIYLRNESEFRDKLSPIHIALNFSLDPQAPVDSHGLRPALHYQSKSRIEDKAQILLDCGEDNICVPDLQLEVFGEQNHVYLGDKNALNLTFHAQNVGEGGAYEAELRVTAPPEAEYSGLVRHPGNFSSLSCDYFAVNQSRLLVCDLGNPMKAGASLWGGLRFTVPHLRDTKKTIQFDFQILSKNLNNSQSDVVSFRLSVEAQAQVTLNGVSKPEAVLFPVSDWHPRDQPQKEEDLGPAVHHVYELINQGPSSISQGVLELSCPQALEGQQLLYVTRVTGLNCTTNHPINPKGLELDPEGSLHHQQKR
# Sequence (P08648 895-1049 limits assumed): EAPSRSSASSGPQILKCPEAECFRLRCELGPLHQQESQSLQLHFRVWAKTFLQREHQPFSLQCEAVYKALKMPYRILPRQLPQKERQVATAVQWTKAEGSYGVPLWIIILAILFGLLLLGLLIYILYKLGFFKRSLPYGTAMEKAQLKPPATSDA
# Sequence (P05556 21-798): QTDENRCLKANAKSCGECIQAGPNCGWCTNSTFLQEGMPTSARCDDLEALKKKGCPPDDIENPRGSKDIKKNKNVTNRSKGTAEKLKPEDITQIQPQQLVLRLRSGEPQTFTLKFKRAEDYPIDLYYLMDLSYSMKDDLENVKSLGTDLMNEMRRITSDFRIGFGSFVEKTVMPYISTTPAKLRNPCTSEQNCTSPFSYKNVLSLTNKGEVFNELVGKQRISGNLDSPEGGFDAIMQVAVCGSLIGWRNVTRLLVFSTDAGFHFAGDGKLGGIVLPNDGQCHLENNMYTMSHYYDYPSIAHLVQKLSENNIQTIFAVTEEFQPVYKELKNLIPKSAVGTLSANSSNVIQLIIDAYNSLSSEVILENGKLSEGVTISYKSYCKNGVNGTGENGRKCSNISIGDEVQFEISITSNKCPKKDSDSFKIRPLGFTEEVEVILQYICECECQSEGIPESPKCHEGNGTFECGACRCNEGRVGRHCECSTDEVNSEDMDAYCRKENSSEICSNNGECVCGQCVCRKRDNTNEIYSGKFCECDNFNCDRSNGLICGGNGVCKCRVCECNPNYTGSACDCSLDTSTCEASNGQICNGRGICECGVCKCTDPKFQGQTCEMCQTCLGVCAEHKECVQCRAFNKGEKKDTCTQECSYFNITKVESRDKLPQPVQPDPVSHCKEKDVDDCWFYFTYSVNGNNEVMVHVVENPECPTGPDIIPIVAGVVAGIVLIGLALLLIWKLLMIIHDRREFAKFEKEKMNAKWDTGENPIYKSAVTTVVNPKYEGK
# experiment: Adhesion of wild-type K562 cells to immobilized fibronectin
# Format: cell-based
# cond: K562 wild type cells, fibronectin; n=6; Table S6; read-out: IC50 α5β1 (linear peptides)
pIC50: −log10 of the molar value. Peptide text beside a SMILES is read from it.
property-name: pIC50

A selection of reference data follows.
molecule	subject-of-test	pIC50
CSCC[C@H](NC(=O)[C@H](C)NC(=O)[C@H](CCCNC(=N)N)NC(=O)[C@H](CCCCN)NC(=O)[C@@H](N)CS)C(=O)N[C@@H](CC(C)C)C(=O)N[C@@H](CC(=O)O)C(=O)NCC(=O)N[C@@H](CC(C)C)C(=O)N[C@@H](CC(N)=O)C(=O)N[C@@H](CC(=O)O)C(=O)N[C@@H](Cc1ccc(O)cc1)C(=O)N[C@@H](CS)C(N)=O [sequence 4, CKRAMLDGLNDYC] (H-CKRAMLDGLNDYC-NH2; N-terminus and C-terminus assumed)	α5β1-fibronectin (Homo sapiens, UniProt P05556+P08648)	< 2.00
CSCC[C@H](NC(=O)[C@@H](NC(=O)[C@H](CCCNC(=N)N)NC(=O)[C@@H](N)CCCCN)[C@@H](C)O)C(=O)N[C@@H](CC(C)C)C(=O)N[C@@H](CC(=O)O)C(=O)NCC(=O)N[C@@H](CC(C)C)C(N)=O [sequence 5, KRTMLDGL] (H-KRTMLDGL-NH2; N-terminus and C-terminus assumed)	α5β1-fibronectin (Homo sapiens, UniProt P05556+P08648)	< 2.00
CSCC[C@H](NC(=O)[C@@H](NC(=O)CNC(=O)[C@@H](N)CCCCN)[C@@H](C)O)C(=O)N[C@@H](CC(C)C)C(=O)N[C@@H](CC(=O)O)C(=O)NCC(=O)N[C@@H](CC(C)C)C(N)=O [sequence 6, KG39TMLDG44L] (H-KGTMLDGL-NH2; N-terminus and C-terminus assumed)	α5β1-fibronectin (Homo sapiens, UniProt P05556+P08648)	< 2.00

Next up:
pIC50 measured on CSCC[C@H](NC(=O)[C@@H](NC(=O)[C@H](CCCNC(=N)N)NC(=O)[C@H](CCCCN)NC(=O)[C@@H](N)CS)[C@@H](C)O)C(=O)N[C@@H](CC(C)C)C(=O)N[C@@H](CC(=O)O)C(=O)NCC(=O)N[C@@H](CC(C)C)C(=O)N[C@@H](CC(N)=O)C(=O)N[C@@H](CC(=O)O)C(=O)N[C@@H](Cc1ccc(O)cc1)C(=O)N[C@@H](CS)C(N)=O [sequence 3, CKRTMLDGLNDYC] (H-CKRTMLDGLNDYC-NH2; N-terminus and C-terminus assumed) = < 2.00
